# pEC50 annotations
# SYSTEM_TESTED: TRPL (TRPL::EGFP) (Drosophila melanogaster, UniProt P48994)
# Sequence (P48994 whole entry): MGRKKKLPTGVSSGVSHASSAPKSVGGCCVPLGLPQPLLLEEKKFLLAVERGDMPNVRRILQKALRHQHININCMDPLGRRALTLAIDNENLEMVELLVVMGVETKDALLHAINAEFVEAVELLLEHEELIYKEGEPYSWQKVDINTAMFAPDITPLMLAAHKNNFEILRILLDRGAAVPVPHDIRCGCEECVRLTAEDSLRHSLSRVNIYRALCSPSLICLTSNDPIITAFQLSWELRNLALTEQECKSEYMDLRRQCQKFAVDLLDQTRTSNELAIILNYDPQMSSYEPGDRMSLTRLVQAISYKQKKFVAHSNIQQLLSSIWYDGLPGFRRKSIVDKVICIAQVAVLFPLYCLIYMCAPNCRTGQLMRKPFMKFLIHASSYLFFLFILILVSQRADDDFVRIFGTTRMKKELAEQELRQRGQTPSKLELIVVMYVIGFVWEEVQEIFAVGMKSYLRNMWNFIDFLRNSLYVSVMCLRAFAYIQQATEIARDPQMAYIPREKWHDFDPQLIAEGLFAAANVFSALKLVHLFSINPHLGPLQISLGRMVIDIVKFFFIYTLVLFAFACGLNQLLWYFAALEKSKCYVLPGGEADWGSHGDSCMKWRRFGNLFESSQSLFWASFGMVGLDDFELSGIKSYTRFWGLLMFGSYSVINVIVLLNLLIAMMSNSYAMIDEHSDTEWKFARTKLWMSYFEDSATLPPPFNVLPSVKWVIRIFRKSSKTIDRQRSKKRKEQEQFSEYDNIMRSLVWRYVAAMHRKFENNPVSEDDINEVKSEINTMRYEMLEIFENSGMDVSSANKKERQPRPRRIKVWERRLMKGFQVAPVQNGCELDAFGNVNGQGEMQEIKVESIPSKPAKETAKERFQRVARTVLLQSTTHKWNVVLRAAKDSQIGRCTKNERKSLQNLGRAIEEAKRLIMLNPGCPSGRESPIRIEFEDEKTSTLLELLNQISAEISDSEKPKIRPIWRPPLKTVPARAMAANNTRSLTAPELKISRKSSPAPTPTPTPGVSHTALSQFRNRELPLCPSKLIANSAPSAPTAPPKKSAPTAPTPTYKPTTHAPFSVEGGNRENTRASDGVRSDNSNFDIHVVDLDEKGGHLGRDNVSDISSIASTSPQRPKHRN
# EXPERIMENTAL_PROTOCOL: Fura-2 Ca2+ imaging, S2 cells
# Assay type: cell-based
pEC50: −log10 of the molar value.
QUANTITY: pEC50

[[record]]
compound = "CCCCC/C=C\\C/C=C\\CCCCCCCC(=O)OC(CO)CO"
quantity = "pEC50"
measured_result = 5.28

[[record]]
compound = "CCCCC/C=C\\C/C=C\\CCCCCCCC(=O)NCCO [LEA, linoleoyl ethanolamide]"
quantity = "pEC50"
measured_result = 5.15

[[record]]
compound = "CCCCC/C=C\\C/C=C\\CCCCCCCC(=O)NCC(=O)O"
quantity = "pEC50"
measured_result = 5.52

